Test: soluble on expression in E. coli; label from the status in PepcDB or PDB records
Readout label: soluble on expression in E. coli

TYAFQRRRFWETPGADGPADAAGLGLGATEHALLGAVVERPDSDEVVLTGRLSLADQPWLADHVVNGVVLFPGAGFVELVIRAGDEVGCALIEELVLAAPLVMHPGVGVQVQVVVGAADESGHRAVSVYSRGDQSQGWLLNAEGMLGVAAAETPMDLSV; soluble
GSHHHHHHGSHMDEKLLKTIAESKYLVALTGAGVSAESGIPTFRGKDGLWNRYRPEELANPQAFAKDPEKVWKWYAWRMEKVFNAQPNKAHQAFAELERLGVLKCLITQNVDDLHERAGSRNVIHLHGSLRVVRCTSCNNSFEVESAPKIPPLPKCDKCGSLLRPGVVWFGEMLPPDVLDRAMREVERADVIIVAGTSAVVQPAASLPLIVKQRGGAIIEINPDETPLTPIADYSLRGKAGEVMDELVRHVRKALS; soluble
